Source listed as patent US12122778B2.

Could you please report measured AC50 for the items listed next?
target: UniProtKB P30613; test: Luminescence Biochemical Assay (Kinase Glo Plus), wild type PKR; settings: without FBP, read-out: AC50 LUM KGP woFBP AC50 μM gmean

Recorded AC50, per entry:
Data request: Param item = `Cc1cc(CNC(=O)N2CC3=C(C2)CN(S(=O)(=O)c2ccc(OC(F)F)cc2)C3)on1` ; retrieve measured AC50.
Data returned: 0.1 to 1 µM

Data request: Quick one: AC50 of `Cc1ccc(S(=O)(=O)N2CC3=C(CN(C(=O)[C@H](O)c4ccccc4)C3)C2)cc1F` ?
Data returned: 0.1 to 1 µM

Data request: Report AC50 for `O=C(N1CCOCC1)N1CC2=C(C1)CN(S(=O)(=O)c1ccc3ncsc3c1)C2` please.
Data returned: 1 to 40 µM

Data request: If you can, please state the reported AC50 value of `O=C([C@H](O)c1ccccc1)N1CC2=C(C1)CN(S(=O)(=O)c1ccc(Cl)cc1)C2` .
Data returned: 0.1 to 1 µM

Data request: Given the compound `O=C(N1CC2=C(C1)CN(S(=O)(=O)c1ccccn1)C2)C1(O)CC1` , what is its reported AC50?
Data returned: 1 to 40 µM

Would you be so kind as to report AC50 for each listed record?
1. O=C(NCc1ccccc1F)N1CC2=C(C1)CN(S(=O)(=O)c1ccc(C(F)(F)F)nc1)C2
2. O=C(Cc1ncccn1)N1CC2=C(C1)CN(S(=O)(=O)c1ccc(OC(F)F)cc1)C2
3. N#Cc1ccccc1S(=O)(=O)N1CC2=C(CN(C(=O)[C@H](O)c3ccccc3)C2)C1
4. O=C(C1CCOCC1)N1CC2=C(C1)CN(S(=O)(=O)c1ccc3c(c1)NCCO3)C2

Data returned:
0.1 to 1 µM
1 to 40 µM
0.1 to 1 µM
0.1 to 1 µM

List the reported AC50 of each compound below.
1. O=C([C@@H](O)c1ccccn1)N1CC2=C(C1)CN(S(=O)(=O)c1ccc(OC(F)F)cc1)C2 (single isomer, unassigned)
2. O=C(OCC1CC1)N1CC2=C(C1)CN(S(=O)(=O)c1ccc(OC(F)F)cc1)C2
3. O=C(NCc1cccc(F)c1)N1CC2=C(C1)CN(S(=O)(=O)c1ccc(OC(F)F)cc1)C2
4. Cc1cccc(CNC(=O)N2CC3=C(C2)CN(S(=O)(=O)c2ccc4ncsc4c2)C3)n1
5. O=C(N1CC2=C(C1)CN(S(=O)(=O)c1ccc3occc3c1)C2)C1(O)CC1
6. Cc1nc(C)c(C(=O)N2CC3=C(C2)CN(S(=O)(=O)c2ccc4occc4c2)C3)s1
7. COc1cccc(CNC(=O)N2CC3=C(C2)CN(S(=O)(=O)c2ccc4ncsc4c2)C3)c1
8. O=C([C@H](O)c1ccc(F)cc1)N1CC2=C(C1)CN(S(=O)(=O)c1ccccn1)C2

Data returned:
1: 0.1 to 1 µM; 2: 1 to 40 µM; 3: 0.1 to 1 µM; 4: 0.1 to 1 µM; 5: 0.1 to 1 µM; 6: 1 to 40 µM; 7: ≤ 0.1 µM; 8: 0.1 to 1 µM

====

target: PKR(wt) (Homo sapiens, UniProt P30613); experiment: Luminescence Biochemical Assay (Kinase Glo Plus), wild type PKR; conditions: without FBP, 1.54 μM compound, read-out: AC50 LUM KGP woFBP % Fold@1.54 μM mean
Sequence (P30613 whole entry): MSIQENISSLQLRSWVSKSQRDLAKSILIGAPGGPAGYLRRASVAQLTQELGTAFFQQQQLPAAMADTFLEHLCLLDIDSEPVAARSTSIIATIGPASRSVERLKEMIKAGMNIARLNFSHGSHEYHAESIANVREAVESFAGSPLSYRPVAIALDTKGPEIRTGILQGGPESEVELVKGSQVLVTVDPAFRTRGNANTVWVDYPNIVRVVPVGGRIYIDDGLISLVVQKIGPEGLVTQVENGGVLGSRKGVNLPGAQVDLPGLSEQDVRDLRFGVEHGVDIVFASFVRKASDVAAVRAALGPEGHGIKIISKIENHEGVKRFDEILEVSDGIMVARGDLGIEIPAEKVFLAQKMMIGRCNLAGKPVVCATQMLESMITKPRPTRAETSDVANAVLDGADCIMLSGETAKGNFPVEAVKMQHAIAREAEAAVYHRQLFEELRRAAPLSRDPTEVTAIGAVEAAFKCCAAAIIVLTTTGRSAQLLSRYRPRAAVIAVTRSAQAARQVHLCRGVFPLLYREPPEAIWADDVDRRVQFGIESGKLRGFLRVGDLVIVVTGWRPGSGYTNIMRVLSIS
testReadout: activation at 1.54 µM

Below, 5 molecules whose answers are already recorded.
Data request: What does the record list as activation at 1.54 µM for COc1ccc(CNC(=O)N2CC3=C(C2)CN(S(=O)(=O)c2ccc4ncsc4c2)C3)cc1 [Example 21-16] ?
Data returned: 250 to 50000%

Data request: For the molecule O=C(N1CCOCC1)N1CC2=C(C1)CN(S(=O)(=O)c1ccc3ncsc3c1)C2 [Example 6-1] , what activation at 1.54 µM is on record?
Data returned: 75 to 250%

Data request: // query activation at 1.54 µM value for entry O=C(NCC1CCCO1)N1CC2=C(C1)CN(S(=O)(=O)c1ccc3occc3c1)C2 (stereo not drawn) [Example 3-1]
Data returned: 75 to 250%

Data request: GET /values?readout=activation at 1.54 µM&item= O=C([C@H](O)c1ccccc1)N1CC2=C(C1)CN(S(=O)(=O)c1ccccn1)C2 [Example 9-2]
Data returned: 75 to 250%

Data request: For the molecule shown here, COc1cc(Cl)ccc1S(=O)(=O)N1CC2=C(CN(C(=O)[C@H](O)c3ccccc3)C2)C1 [Example 18-58] , give the reported activation at 1.54 µM.
Data returned: 75 to 250%

Need activation at 1.54 µM for each of these molecules.
1. Cc1cccc(S(=O)(=O)N2CC3=C(CN(C(=O)NCc4ccccc4F)C3)C2)n1 [Example 15-1]
2. O=C(N1CC2=C(C1)CN(S(=O)(=O)c1cccc3cccnc13)C2)N1CC(O)(Cc2ccccc2)C1 [Example 12-1]

Data returned:
["250 to 50000%", "75 to 250%"]
